Please respond with reported Kd for every item in the list.
# Experimental target: eOD-GT8 (monomeric ligand) (Human immunodeficiency virus 1, …)
One number for each entry, in nM.

Past entries and their recorded results:
g28v2-D38-7_CLK19 (antibody, V domains shown) VH: QVQLVQSGAEVKKPGASVKVSCKASGYTFTGYYMHWVRQAPGQGPEWMGWLNPNNGGTNFARKYQDRVTMTRDTSLSSAYMELSRLRSDDTAVYYCARVGEKWTFDFWGQGTMVTVSS VL: DIQMTQSPSSLSASVGDRVTITCQASQDINNYLNWYQQKPGKAPKLLIYDTSNLEAGVPSRFSGSGSGTDFTFTISSLQPEDIATYFCQQYAAFGPGTKVDIK | 0.0876
g5-D78-3_CLK19 (antibody, V domains shown) VH: QVQLVQSGAEVKKPGASVKVSCKASGYIFTDYNMHWVRQAPGQGLEWMGWINPSFGGRNIVQKFQGRVTMTRDTSISTAYMELSGLRSDDTAVYFCTPVLAPFRWPFAYWGQGTLVTVSS VL: DIQMTQSPSSLSASVGDRVTITCQASQDINYLNWYQQKPGKAPKLLIYDASNLETGVPSRFSGSGSGTDFTFTISSLQPEDIATYYCQQYAAFGPGTKVDNK | 0.87

Kindly give each listed record's Kd.
1. g28-D78-21_CLK09 (antibody, V domains shown) VH: QLQESGAEVKKPGASVRVSCKASGYTFTGNYIHWVRQAPGQGLEWMGWVNPINGGTNHAQKFQGRVTMTRDTSISTAYMELSRLRSDDTTVYYCARVGGLWFGKGWTFDIWGQGTMVTVSS VL: DIQMTQSPSSLSASVGDRVTITCQASQDISILNWYQQKPGKAPKLLIYGASNLETGVPSRFSGSGSGTDFTFTISSLQPEDIATYYCQQYEFFGGGTKVRIK
2. g28v2-D46-5_CLK19 (antibody, V domains shown) VH: QVQLLQSGDEVKKPGASVRVSCKASGYTFTAYYLHWVRQAPGQGLEWMGWLYPQSGGTNYAQRFQGRVTMTRDTSISTAFMELSRLRSDDTAVYYCAPVLADYRWRFAYWGQGTLVTVSS VL: DIQMTQSPSSLSASVGDRVTITCQASQDINNYLNWYQQKPGKAPKLLIYDTTNLEIGVPSRFSGSGSGTDFTFTISSLQPEDIATYYCQQYAAFGPGTKVDIK
3. GT8-D36-20_CLK09 (antibody, V domains shown) VH: QVQLVQSGAEVKKPGASVKVSCKASGYTFTGYYIHWVRQAPGQGLKWMGWINPNSGGTNYAQKFQGRVTMTRDTSISTAYLELSRLRSDDTAVYYCARVEGLWTFDIWGQGTMVTVSS VL: DIQMTQSPSSLSASVGDRVTITCQASQDISNYLNWYQQKPGKAPKLLIYDASNLETGVPSRFSGSGSGTDFIFTISSLQSEDMATYYCQQYEFFGGGTKVEIK

A)
1: 0.87; 2: 19.7; 3: 8.37
